Test system: HL-60
Test: NCI tumour cell line growth inhibition, 48 h
Activity calls are given as the source filed them. Rule as the data show it: active = GI50 up to about 1.1 µM and inactive = higher.
Readout Kind: GI50

compound=O=[N+]([O-])c1ccc(/C=C/c2csnn2)cc1 assay_system=HL-60 obs_value="> 100 µM (inactive)"
compound=COc1ccc(NC(=S)c2ccc(CN3CCCCC3)s2)cc1 assay_system=HL-60 obs_value="14.3 µM (inactive)"
compound=Cc1cc(N(CCCl)CCCl)ccc1/C=N/NC(=O)Cc1cc(=O)oc2cc(O)ccc12 assay_system=HL-60 obs_value="12.2 µM (inactive)"
compound=Nc1ccc2c(c1)CN1C(=O)c3ccccc3C1=N2 assay_system=HL-60 obs_value="8.3 µM (inactive)"
compound="OC1(c2ccc(Cl)cc2)c2ccccc2C2=Nc3ccccc3CN21 (stereo unspecified)" assay_system=HL-60 obs_value="18.4 µM (inactive)"

Could you now look at the following compound, please?
Can you look up GI50 on HL-60 for CCOC(=O)/C(=C/c1cc(OC)ccc1OC)CC(=O)O ?
> 31.6 µM (inactive)

###

Test system: SK-MEL-2
Assay: NCI tumour cell line growth inhibition, 48 h
Activity calls are given as the source filed them. Rule as the data show it: active = GI50 up to about 1.1 µM and inactive = higher.
Outcome field: choose from 1.0 (active), 0.0 (inactive)

Before answering, review these 10 worked examples.
molecule=COc1ccc([Se]c2ccc(OC)cc2)cc1 answer_label=0.0
molecule=CCCC[C@@H](C)/C=C1\CN2CCC[C@H]2[C@@](C)(O)[C@@H]1O answer_label=0.0
molecule="CC(C)(C)[Si](C)(C)OCC1OC(n2cnc3c(N)ncnc32)CC1O (configuration not stated)" answer_label=0.0
molecule=COc1cc(/C=N/N=C(\N)NO)c(Cl)cc1O answer_label=0.0
molecule="OC1(c2ccc(Cl)cc2)c2ccccc2C2=Nc3ccccc3CN21 (configuration not stated)" answer_label=0.0
molecule="CC12CCC3(C1)[C@H](CC2=O)C[C@@H](OC(=O)c1ccccc1)C1C(C)(CO)CCC[C@@]13C (some centres not stated)" answer_label=0.0
molecule="COC(=O)C1C2CC3C(OC(=O)C31)C2I (configuration not stated)" answer_label=0.0
molecule="COC1C(N(C)C)=C(c2ccccc2)C(=O)N2CCc3ccccc3C12 (configuration not stated)" answer_label=0.0
molecule=O=c1ccc2nc3cc(Br)ccc3sc-2c1 answer_label=0.0
molecule=C=CC1=C(C)c2cc3[nH]c(cc4nc(cc5[nH]c(cc1n2)c(C)c5CCC(=O)N(CC)CC)C(CCC(=O)N(CC)CC)=C4C)c(C)c3C=C answer_label=0.0

Entry O=c1oc2ccccc2c2c1Sc1ccccc1N2 : call = ?
0.0

Query CC(=O)NC1C(=O)CC(c2ccccc2)N(C)C1c1ccccc1 (configuration not stated) next
0.0

###

Tested on: SNB-75
Test: NCI tumour cell line growth inhibition, 48 h
Calls of active or inactive are those of the source. Rule as the data show it: active = GI50 up to about 1.1 µM and inactive = higher.
Entry note: the call must match one of active, inactive

molecule=N#CCCN(CCC#N)c1ccc(C(=O)NN)cc1 answer_label=inactive
molecule="Nc1ncnc2c1ncn2C1C=CC(CP(=O)(O)O)C1 (configuration not stated)" answer_label=inactive
molecule=Cn1c2ccccc2c(=NNc2ccccc2C(=O)O)c2ccccc21 answer_label=inactive
molecule="Fc1cccc(F)c1C1SCc2nc3cc4ccccc4cc3n21 (configuration not stated)" answer_label=inactive
molecule=c1cc(CSc2ncnc3[nH]cnc23)ccn1 answer_label=inactive
molecule=CCC(=O)NC(Nc1cccc(F)c1C)(C(F)(F)F)C(F)(F)F answer_label=inactive
molecule=O=C(CCC1C(=O)NC(=S)NC1=O)c1ccc2ccccc2c1 answer_label=inactive
molecule=CN[C@@H](C)[C@H](NC)c1ccccc1 answer_label=inactive

Pending molecule:
Assay outcome for COc1ccc(/C=c2/sc3n(c2=O)NC2(CCC(C)CC2)NN=3)cc1 (configuration not stated) : what was it?
inactive
